These data points were gathered from ChEMBL document CHEMBL4118265.

Catalogue of inhibition readings, one per entry.
Target or test system: Cholinesterase (Equus caballus)
Assay method text: Inhibition of horse serum BChE at 0.391 ug using butyrylthiocholine chloride as substrate preincubated for 15 mins followed by substrate addition measured every 5 mins for 15 mins by spectrophotometric method relative to control

Below, 4 compounds whose answers are already recorded.
Noted for Cc1[nH]nc2c1C(c1ccc(Br)cc1)c1c(nc3c(c1N)CCCC3)O2 (stereo not given) : its inhibition reads 13.1%

Noted for Cc1[nH]nc2c1C(c1cccnc1)c1c(nc3c(c1N)CCCC3)O2 (stereo not given) : its inhibition reads 18.2%

Noted for Cc1[nH]nc2c1C(c1ccc([N+](=O)[O-])cc1)c1c(nc3c(c1N)CCCC3)O2 (stereo not given) : its inhibition reads 24.9%

Noted for COc1ccc2c3c1O[C@H]1C[C@@H](O)C=C[C@@]31CCN(C)C2 : its inhibition reads 11.1%

Pending compound:
Noted for COc1ccc2ccccc2c1C1c2c(n[nH]c2C)Oc2nc3c(c(N)c21)CCCC3 (stereo not given) : its inhibition reads 2.86%

====

Target or test system: Cholinesterase (Equus caballus) (UniProt P81908)
Sequence (P81908 whole entry): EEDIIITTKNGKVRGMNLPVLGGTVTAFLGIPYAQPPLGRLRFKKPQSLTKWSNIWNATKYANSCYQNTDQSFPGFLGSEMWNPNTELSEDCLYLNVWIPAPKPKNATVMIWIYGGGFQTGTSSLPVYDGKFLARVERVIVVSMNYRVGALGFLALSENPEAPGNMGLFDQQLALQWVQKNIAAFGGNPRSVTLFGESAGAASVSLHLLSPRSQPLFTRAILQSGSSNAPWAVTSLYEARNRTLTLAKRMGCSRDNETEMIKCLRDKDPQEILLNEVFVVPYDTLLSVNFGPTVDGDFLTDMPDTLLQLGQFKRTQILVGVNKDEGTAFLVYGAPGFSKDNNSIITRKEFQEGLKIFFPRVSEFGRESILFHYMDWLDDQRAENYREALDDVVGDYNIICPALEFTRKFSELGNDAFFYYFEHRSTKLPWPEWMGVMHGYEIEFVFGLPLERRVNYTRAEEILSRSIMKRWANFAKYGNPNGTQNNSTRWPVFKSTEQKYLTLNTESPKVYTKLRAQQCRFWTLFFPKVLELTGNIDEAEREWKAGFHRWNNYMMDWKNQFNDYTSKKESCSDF
Assay method text: Inhibition of horse serum BChE at 12.5 ug using butyrylthiocholine chloride as substrate preincubated for 15 mins followed by substrate addition measured every 5 mins for 15 mins by spectrophotometric method relative to control
Label rule, in plain words: inhibition of 60% and up is MET, under 60% is NOT MET.

These solved cases illustrate the format of a correct answer.
Decide: is the reported value of inhibition for Cc1[nH]nc2c1C(c1ccc(Cl)cc1)c1c(nc3c(c1N)CCCC3)O2 (stereo not given) equal to or greater than 60%?
NOT MET

Decide: is the reported value of inhibition for Cc1[nH]nc2c1C(c1cccnc1)c1c(nc3c(c1N)CCCC3)O2 (stereo not given) equal to or greater than 60%?
MET

Decide: is the reported value of inhibition for Cc1[nH]nc2c1C(c1ccccc1)c1c(nc3c(c1N)CCCC3)O2 (stereo not given) equal to or greater than 60%?
NOT MET

New cases:
Decide: is the reported value of inhibition for Cc1[nH]nc2c1C(c1c(Cl)cccc1[N+](=O)[O-])c1c(nc3c(c1N)CCCC3)O2 (stereo not given) equal to or greater than 60%?
MET

Decide: is the reported value of inhibition for COc1ccc2ccccc2c1C1c2c(n[nH]c2C)Oc2nc3c(c(N)c21)CCCC3 (stereo not given) equal to or greater than 60%?
MET

====

Target or test system: Cholinesterase (Equus caballus, UniProt P81908)
Sequence (P81908 whole entry): as above
Assay method text: Inhibition of horse serum BChE using butyrylthiocholine chloride as substrate preincubated for 15 mins followed by substrate addition measured every 5 mins for 15 mins by spectrophotometric method
Endpoint label: IC50 (µM)
// units = µM; emit number, no label

Noted for Cc1[nH]nc2c1C(c1c(Cl)cccc1[N+](=O)[O-])c1c(nc3c(c1N)CCCC3)O2 (configuration not stated) : its IC50 reads 1.84

Noted for Cc1[nH]nc2c1C(c1ccc(Br)cc1)c1c(nc3c(c1N)CCCC3)O2 (configuration not stated) : its IC50 reads 11.6

Noted for Cc1[nH]nc2c1C(c1cccnc1)c1c(nc3c(c1N)CCCC3)O2 (configuration not stated) : its IC50 reads 4.26

Noted for COc1ccc(C2c3c(n[nH]c3C)Oc3nc4c(c(N)c32)CCCC4)c(OC)c1 (configuration not stated) : its IC50 reads 31.1

Noted for Cc1[nH]nc2c1C(c1ccccc1)c1c(nc3c(c1N)CCCC3)O2 (configuration not stated) : its IC50 reads 36

New cases:
Noted for Cc1[nH]nc2c1C(c1ccc([N+](=O)[O-])cc1)c1c(nc3c(c1N)CCCC3)O2 (configuration not stated) : its IC50 reads 2.73

Noted for Cc1[nH]nc2c1C(c1cc([N+](=O)[O-])ccc1Cl)c1c(nc3c(c1N)CCCC3)O2 (configuration not stated) : its IC50 reads 2.5

Noted for COc1ccc2ccccc2c1C1c2c(n[nH]c2C)Oc2nc3c(c(N)c21)CCCC3 (configuration not stated) : its IC50 reads 11.3

Noted for Cc1ccc(C2c3c(n[nH]c3C)Oc3nc4c(c(N)c32)CCCC4)c(C)c1 (configuration not stated) : its IC50 reads 39

====

Target or test system: Cholinesterase (Equus caballus)
Assay method text: Inhibition of horse serum BChE at 0.781 ug using butyrylthiocholine chloride as substrate preincubated for 15 mins followed by substrate addition measured every 5 mins for 15 mins by spectrophotometric method relative to control
Label rule, in plain words: inhibition of 20% and up is label 1, under 20% is label 0.

Decide: is the reported value of inhibition for Cc1[nH]nc2c1C(c1cc([N+](=O)[O-])ccc1Cl)c1c(nc3c(c1N)CCCC3)O2 (stereo unspecified) equal to or greater than 20%?
label 0

Decide: is the reported value of inhibition for Cc1[nH]nc2c1C(c1ccc(Cl)cc1)c1c(nc3c(c1N)CCCC3)O2 (stereo unspecified) equal to or greater than 20%?
label 1

New cases:
Decide: is the reported value of inhibition for CSc1ccc(C2c3c(n[nH]c3C)Oc3nc4c(c(N)c32)CCCC4)cc1 (stereo unspecified) equal to or greater than 20%?
label 0

Decide: is the reported value of inhibition for Cc1[nH]nc2c1C(c1ccc([N+](=O)[O-])cc1)c1c(nc3c(c1N)CCCC3)O2 (stereo unspecified) equal to or greater than 20%?
label 1

Decide: is the reported value of inhibition for Cc1[nH]nc2c1C(c1ccccc1)c1c(nc3c(c1N)CCCC3)O2 (stereo unspecified) equal to or greater than 20%?
label 0

Decide: is the reported value of inhibition for COc1ccc2ccccc2c1C1c2c(n[nH]c2C)Oc2nc3c(c(N)c21)CCCC3 (stereo unspecified) equal to or greater than 20%?
label 0

====

Target or test system: Cholinesterase (Equus caballus) (UniProt P81908)
Assay method text: Inhibition of horse serum BChE at 0.391 ug using butyrylthiocholine chloride as substrate preincubated for 15 mins followed by substrate addition measured every 5 mins for 15 mins by spectrophotometric method relative to control
Catalogue of inhibition readings, one per entry.
// units = %; emit number, no label

Below, 4 compounds whose answers are already recorded.
Bench note, Cholinesterase (Equus caballus) (UniProt P81908): Cc1[nH]nc2c1C(c1ccc(Cl)cc1)c1c(nc3c(c1N)CCCC3)O2 (stereo not given) , inhibition reads 20.8

Bench note, Cholinesterase (Equus caballus) (UniProt P81908): Cc1[nH]nc2c1C(c1c(Cl)cccc1[N+](=O)[O-])c1c(nc3c(c1N)CCCC3)O2 (stereo not given) , inhibition reads 37.6

Bench note, Cholinesterase (Equus caballus) (UniProt P81908): CSc1ccc(C2c3c(n[nH]c3C)Oc3nc4c(c(N)c32)CCCC4)cc1 (stereo not given) , inhibition reads 0.11

Bench note, Cholinesterase (Equus caballus) (UniProt P81908): Cc1[nH]nc2c1C(c1cc([N+](=O)[O-])ccc1Cl)c1c(nc3c(c1N)CCCC3)O2 (stereo not given) , inhibition reads 5.53

Pending compound:
Bench note, Cholinesterase (Equus caballus) (UniProt P81908): Cc1[nH]nc2c1C(c1ccccc1)c1c(nc3c(c1N)CCCC3)O2 (stereo not given) , inhibition reads 5.38

====

Catalogue of inhibition readings, one per entry.
Target or test system: Cholinesterase (Equus caballus) (UniProt P81908)
Assay method text: Inhibition of horse serum BChE at 6.25 ug using butyrylthiocholine chloride as substrate preincubated for 15 mins followed by substrate addition measured every 5 mins for 15 mins by spectrophotometric method relative to control
// units = %; emit number, no label

Noted for Cc1[nH]nc2c1C(c1ccc([N+](=O)[O-])cc1)c1c(nc3c(c1N)CCCC3)O2 (configuration not stated) : its inhibition reads 90.3

Noted for Cc1[nH]nc2c1C(c1ccc(-c3ccccc3)cc1)c1c(nc3c(c1N)CCCC3)O2 (configuration not stated) : its inhibition reads 11.8

Noted for Cc1[nH]nc2c1C(c1ccc(Cl)cc1)c1c(nc3c(c1N)CCCC3)O2 (configuration not stated) : its inhibition reads 31.7

Noted for Cc1[nH]nc2c1C(c1c(Cl)cccc1[N+](=O)[O-])c1c(nc3c(c1N)CCCC3)O2 (configuration not stated) : its inhibition reads 86.5

Noted for CSc1ccc(C2c3c(n[nH]c3C)Oc3nc4c(c(N)c32)CCCC4)cc1 (configuration not stated) : its inhibition reads 36.6

Noted for COc1ccc(C2c3c(n[nH]c3C)Oc3nc4c(c(N)c32)CCCC4)c(OC)c1 (configuration not stated) : its inhibition reads 55.8

Noted for Cc1ccc(C2c3c(n[nH]c3C)Oc3nc4c(c(N)c32)CCCC4)c(C)c1 (configuration not stated) : its inhibition reads 44.8

Noted for Cc1[nH]nc2c1C(c1cccnc1)c1c(nc3c(c1N)CCCC3)O2 (configuration not stated) : its inhibition reads 72

New cases:
Noted for Cc1[nH]nc2c1C(c1ccccc1)c1c(nc3c(c1N)CCCC3)O2 (configuration not stated) : its inhibition reads 30.7

Noted for Cc1[nH]nc2c1C(c1ccc(Br)cc1)c1c(nc3c(c1N)CCCC3)O2 (configuration not stated) : its inhibition reads 58.5

Noted for COc1ccc2ccccc2c1C1c2c(n[nH]c2C)Oc2nc3c(c(N)c21)CCCC3 (configuration not stated) : its inhibition reads 51.9

Noted for Cc1[nH]nc2c1C(c1cc([N+](=O)[O-])ccc1Cl)c1c(nc3c(c1N)CCCC3)O2 (configuration not stated) : its inhibition reads 35.6
